Hey, just so you know, these numbers are from paper PMC12316308.

target: aureolysin (ALN) (Staphylococcus aureus); construct: purchased BioCentrum Ltd (Kraków, Poland); assay: Enzyme inhibition kinetics, fluorogenic substrate ES005; format: biochemical; conditions: 0.5 h, read-out: vi/v0 (single replicate), Aureolysin; 100 µM inhibitor; 30 min pre incubation
Sequence (P81177 209-509): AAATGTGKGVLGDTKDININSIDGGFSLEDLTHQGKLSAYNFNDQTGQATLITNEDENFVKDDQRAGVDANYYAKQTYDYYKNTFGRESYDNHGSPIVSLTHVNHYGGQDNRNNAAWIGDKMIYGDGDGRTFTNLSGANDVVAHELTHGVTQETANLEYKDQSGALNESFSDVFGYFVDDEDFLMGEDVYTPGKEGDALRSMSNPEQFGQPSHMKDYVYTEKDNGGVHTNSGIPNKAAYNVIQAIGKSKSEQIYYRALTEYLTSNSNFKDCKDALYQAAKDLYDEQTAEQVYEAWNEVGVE
Entries and their remaining activity at 100 µM values follow.
# number only, unit % dropped from output

{"compound": "NC(=O)C(CCC(=O)O)NC(=O)C(CCC(=O)O)NC(=O)C(Cc1cc(-c2ccc(-c3cccc(Cl)c3)cc2)no1)CP(=O)(O)c1ccc(Br)cc1 (stereo not shown)", "unit": "%", "remaining activity at 100 µM": 89.6}
{"compound": "CCOC(=O)C(CO)CP(=O)(O)C(Cc1ccccc1)NC(=O)OCc1ccccc1 (stereo not shown)", "unit": "%", "remaining activity at 100 µM": 89.6}
{"compound": "NC(=O)C(Cc1c[nH]c2ccccc12)NC(=O)C(CCCc1ccccc1)CP(=O)(O)C(Cc1ccccc1)NC(=O)OCc1ccccc1 (stereo not shown)", "unit": "%", "remaining activity at 100 µM": 39.1}

# next compound below
Lookup: What does the data say about its remaining activity at 100 µM? Entry: CC(NC(=O)OCc1ccccc1)P(=O)(O)CC(Cc1ccccc1)C(=O)O (stereo not shown)
Found: 90.1

---

target: thermolysin (TLN) (Bacillus thermoproteolyticus); construct: purchased Calbiochem (San Diego, CA, USA); test: Enzyme inhibition kinetics, fluorogenic substrate ES005; format: biochemical; conditions: TLN; substrate ES005 4.0 µM; 0.1 M Hepes pH 7.5, 37°C, 1.0% DMSO; Ki from IC50 (Eqn. 3); read-out: Ki ± s.d.
Sequence (P00800 233-548): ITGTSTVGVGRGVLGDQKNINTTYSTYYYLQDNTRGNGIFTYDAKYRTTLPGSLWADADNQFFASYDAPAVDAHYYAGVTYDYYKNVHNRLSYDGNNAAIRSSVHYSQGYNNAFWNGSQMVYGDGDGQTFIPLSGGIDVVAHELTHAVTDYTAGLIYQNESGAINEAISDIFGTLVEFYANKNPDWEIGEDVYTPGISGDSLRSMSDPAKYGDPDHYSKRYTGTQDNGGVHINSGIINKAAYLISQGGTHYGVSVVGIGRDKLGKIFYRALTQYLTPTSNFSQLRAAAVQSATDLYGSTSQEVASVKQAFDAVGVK
pKi: −log10 of the molar value.
assay readout: pKi

Lookup: Could you share what pKi was measured for CC(=O)NC(CC(C)C)C(=O)CC(C)P(=O)(O)CC(Cc1ccccc1)C(=O)O (stereo not shown) [H-3] , tested on thermolysin (TLN) (Bacillus thermoproteolyticus)?
Found: ≤ 4.00

---

target: aureolysin (ALN) (Staphylococcus aureus); construct: purchased BioCentrum Ltd (Kraków, Poland); assay: Enzyme inhibition kinetics, fluorogenic substrate ES005; type: biochemical; conditions: 0.5 h, read-out: vi/v0 avg, Aureolysin; 100 µM inhibitor; 30 min pre incubation
assay readout: remaining activity at 100 µM (%)
# number only, unit % dropped from output

Past entries and their recorded results:
{"compound": "NC(=O)C(CCC(=O)O)NC(=O)C(CCC(=O)O)NC(=O)C(Cc1cc(-c2ccc(-c3cccc(Cl)c3)cc2)no1)CP(=O)(O)c1ccc(Br)cc1 (stereo not shown) [H-1]", "tested on": "aureolysin (ALN) (Staphylococcus aureus)", "unit": "%", "remaining activity at 100 µM": 89.8}
{"compound": "CCOC(=O)C(CO)CP(=O)(O)C(Cc1ccccc1)NC(=O)OCc1ccccc1 (stereo not shown) [H5]", "tested on": "aureolysin (ALN) (Staphylococcus aureus)", "unit": "%", "remaining activity at 100 µM": 87.3}
{"compound": "NC(=O)C(Cc1c[nH]c2ccccc12)NC(=O)C(CCCc1ccccc1)CP(=O)(O)C(Cc1ccccc1)NC(=O)OCc1ccccc1 (stereo not shown) [H-2]", "tested on": "aureolysin (ALN) (Staphylococcus aureus)", "unit": "%", "remaining activity at 100 µM": 39.4}

# next compound below
Lookup: What does the data say about its remaining activity at 100 µM? Entry: CC(NC(=O)OCc1ccccc1)P(=O)(O)CC(Cc1ccccc1)C(=O)O (stereo not shown) [H4]
Found: 89.4
